target: type VI-S porcine pancreatic lipase (Sus scrofa); construct: purchased Sigma type VI-S (catalogue number not given); assay: Pancreatic lipase assay (pH-stat titration, triolein substrate); format: biochemical; settings: 12.5 min
t means recorded inhibition at 0.7 µM is 40% or above; f means it is below 40%.

Check if inhibition at 0.7 µM >= 40% (inclusive). Item: "CCCCCCCCOc1nc2sc(CCCCCCCC)c(C)c2c(=O)o1"
f

Check if inhibition at 0.7 µM >= 40% (inclusive). Item: CCCCCCCCOc1nc2sc(C(C)CCCC(C)(C)OC)cc2c(=O)o1 (centres unmarked)
f

Check if inhibition at 0.7 µM >= 40% (inclusive). Item: "CCCCCCCCCCc1cc2c(=O)oc(OCCCCCCCC)nc2s1"
t

Check if inhibition at 0.7 µM >= 40% (inclusive). Item: "CCCCCCCCNC(=O)c1sc2nc(NCCCCCCCC)oc(=O)c2c1C"
f

Check if inhibition at 0.7 µM >= 40% (inclusive). Item: CCCCCCC(C)Oc1nc2sc(C(=O)OCc3ccccc3)c(C)c2c(=O)o1 (centres unmarked)
f

----------
In this section we review reported melting point values for a set of molecules.

// solved cases for melting point follow
# molecule, quantity-measured, value-measured
measured = [
    ("CCCCCCCCOC(=O)c1sc2nc(OCCCCCCCC)oc(=O)c2c1C [Entry 9]", "melting point", "58.5 to 60.2 °C"),
    ("CCCCCCCCNc1nc2sc(C(=O)NCCCCc3ccccc3)c(C)c2c(=O)o1 [Entry 79]", "melting point", "153 to 154 °C"),
    ("CCCCCCCCNc1nc2sc(C(=O)NC)c(C)c2c(=O)o1 [Entry 31]", "melting point", "152.5 to 158 °C"),
    ("CCCCCCCCNc1nc2sc(C(=O)N(CCCCCCCC)CCCCCCCC)c(C)c2c(=O)o1 [Entry 41]", "melting point", "48 to 50 °C"),
    ("CCCCCCCCNc1nc2sc(C(=O)NCc3cccnc3)c(C)c2c(=O)o1 [Entry 35]", "melting point", "148 to 150 °C"),
    ("CCCCCCCCOc1nc2sc(CCCCCCC)c(C)c2c(=O)o1 [Entry 74]", "melting point", "29 to 31 °C"),
]

# input molecule: CCCCCCCCOC(=O)c1sc2nc(OC(C)C)oc(=O)c2c1C [Entry 12] ; wanted: its melting point
47.5 to 48 °C

# input molecule: CCCCCCCCNc1nc2sc(C(=O)NCc3ccc4c(c3)OCO4)c(C)c2c(=O)o1 [Entry 69] ; wanted: its melting point
149 to 152 °C

# input molecule: CCCCCCCCNc1nc2sc(C(=O)NCc3ccc(OC)c(OC)c3)c(C)c2c(=O)o1 [Entry 66] ; wanted: its melting point
159 to 163 °C

# input molecule: CCCCCCCCNC(=O)Nc1sc(C(=O)N2CCN(Cc3ccccc3)CC2)c(C)c1C(=O)O [Entry 37] ; wanted: its melting point
193.5 to 195 °C (dec.)

# input molecule: CCCCCCCCNc1nc2sc(C(=O)N(CCCCCC)CCCCCC)c(C)c2c(=O)o1 [Entry 42] ; wanted: its melting point
42 to 45 °C

----------
target: type VI-S porcine pancreatic lipase (Sus scrofa); construct: purchased Sigma type VI-S (catalogue number not given); experiment: Pancreatic lipase assay (pH-stat titration, triolein substrate); type: biochemical; design: unit not given here; conditions: 7.0 nM lipase, 700 nM inhibitor, pH 8.0; Ymax of the fit Y=Ymax*(1-exp(-k*X))
true means recorded Ymax is 0.6 or above; false means it is below 0.6.

Example entries and their recorded answers appear below.
# compound, qualitative-label
data = [
    ("CCCCCCCCOc1nc2sc(CCCCCCC)c(C)c2c(=O)o1 [Entry 74]", "true"),
    ("CCCCCCCCNc1nc2sc(C(=O)NCc3ccc4c(c3)OCO4)c(C)c2c(=O)o1 [Entry 69]", "false"),
    ("CCCCCCCCNc1nc2sc(Cc3ccccc3)cc2c(=O)o1 [Entry 62]", "true"),
    ("CCCCCCCCOc1nc2sc(CCCCCC)cc2c(=O)o1 [Entry 84]", "false"),
    ("CCCCCCCCNc1nc2sc(CCCCCCC)cc2c(=O)o1 [Entry 61]", "false"),
]

Check if Ymax >= 0.6 (inclusive). Item: CCCCCCCCNc1nc2sc(C(=O)NCCOc3ccccc3)c(C)c2c(=O)o1 [Entry 70]
false

Check if Ymax >= 0.6 (inclusive). Item: CCCCCCC(C)Nc1nc2sc(C(=O)OCc3ccccc3)c(C)c2c(=O)o1 (stereo not drawn) [Entry 71]
true

Check if Ymax >= 0.6 (inclusive). Item: CCCCCCCCNC(=O)Nc1sc(C(=O)N2CCN(Cc3ccccc3)CC2)c(C)c1C(=O)O [Entry 37]
false

----------
target: type VI-S porcine pancreatic lipase (Sus scrofa, UniProt P00591); construct: purchased Sigma type VI-S (catalogue number not given); test: Pancreatic lipase assay (pH-stat titration, triolein substrate); type: biochemical; parameters: unit not given here; conditions: 7.0 nM lipase, 700 nM inhibitor, pH 8.0; Ymax of the fit Y=Ymax*(1-exp(-k*X))
Sequence (P00591 whole entry): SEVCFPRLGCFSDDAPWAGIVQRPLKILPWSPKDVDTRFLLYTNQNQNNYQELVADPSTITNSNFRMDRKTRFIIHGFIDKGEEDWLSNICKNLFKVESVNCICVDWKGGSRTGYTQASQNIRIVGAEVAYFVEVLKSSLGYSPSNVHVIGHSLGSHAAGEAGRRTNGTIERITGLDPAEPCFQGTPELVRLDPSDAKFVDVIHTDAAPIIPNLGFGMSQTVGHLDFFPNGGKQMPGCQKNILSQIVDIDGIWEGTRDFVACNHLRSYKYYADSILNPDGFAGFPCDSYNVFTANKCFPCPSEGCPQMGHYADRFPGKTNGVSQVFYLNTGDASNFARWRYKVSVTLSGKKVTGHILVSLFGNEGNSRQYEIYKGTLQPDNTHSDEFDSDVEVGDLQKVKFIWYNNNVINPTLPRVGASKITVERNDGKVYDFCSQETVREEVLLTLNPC
quantity-measured: Ymax
# answer = number (no unit)

// solved cases for Ymax follow
# compound, measurement-target, quantity-measured, value-measured
data = [
    ("CCCCCCCCNc1nc2sc(C(=O)NCc3ccc(OC)c(OC)c3)c(C)c2c(=O)o1 [Entry 66]", "type VI-S porcine pancreatic lipase (Sus scrofa, UniProt P00591)", "Ymax", 0.118),
    ("CCCCCCCCOC(=O)c1sc2nc(OCCCCCCCC)oc(=O)c2c1C [Entry 9]", "type VI-S porcine pancreatic lipase (Sus scrofa, UniProt P00591)", "Ymax", 0.286),
    ("CCCCCCCCOc1nc2sc(Cc3ccccc3)cc2c(=O)o1 [Entry 77]", "type VI-S porcine pancreatic lipase (Sus scrofa, UniProt P00591)", "Ymax", 0.482),
    ("CCCCCCCCNc1nc2sc(C(=O)NCCCOC)c(C)c2c(=O)o1 [Entry 73]", "type VI-S porcine pancreatic lipase (Sus scrofa, UniProt P00591)", "Ymax", 1.594),
    ("CCCCCCCCNc1nc2sc(C(=O)N3CCc4cc(OC)c(OC)cc4C3)c(C)c2c(=O)o1 [Entry 65]", "type VI-S porcine pancreatic lipase (Sus scrofa, UniProt P00591)", "Ymax", 0.339),
]

# input compound: CCCCCCCCNc1nc2sc(C(=O)NCCOC)c(C)c2c(=O)o1 [Entry 72] ; wanted: its Ymax
0.185

# input compound: CCCCCCCCOc1nc2sc(CCCCCCC)cc2c(=O)o1 [Entry 68] ; wanted: its Ymax
0.020

# input compound: CCCCCCCCOc1nc2sc(C(C)CC(C)(C)C)cc2c(=O)o1 (centres unmarked) [Entry 78] ; wanted: its Ymax
0.126

----------
target: type VI-S porcine pancreatic lipase (Sus scrofa, UniProt P00591); construct: purchased Sigma type VI-S (catalogue number not given); test: Pancreatic lipase assay (pH-stat titration, triolein substrate); format: biochemical; details: 12.5 min
t means recorded inhibition at 0.7 µM is 70% or above; f means it is below 70%.

# compound, measurement-target, qualitative-label
measured = [
    ("CCCCCCCCOc1nc2sc(CCCCCCC)cc2c(=O)o1", "type VI-S porcine pancreatic lipase (Sus scrofa, UniProt P00591)", "t"),
    ("CCCCCCCCNc1nc2sc(C(=O)NCCCc3ccccc3)c(C)c2c(=O)o1", "type VI-S porcine pancreatic lipase (Sus scrofa, UniProt P00591)", "f"),
    ("CCCCCCCCc1cc2c(=O)oc(OCCCC)nc2s1", "type VI-S porcine pancreatic lipase (Sus scrofa, UniProt P00591)", "f"),
    ("CCCCCCCCc1cc2c(=O)oc(OCCCCCC)nc2s1", "type VI-S porcine pancreatic lipase (Sus scrofa, UniProt P00591)", "t"),
    ("CCCCCCCCOc1nc2sc(C(C)CC(C)(C)C)cc2c(=O)o1 (centres unmarked)", "type VI-S porcine pancreatic lipase (Sus scrofa, UniProt P00591)", "f"),
    ("CCCCCCCCOc1nc2sc(CCCCCCCC)cc2c(=O)o1", "type VI-S porcine pancreatic lipase (Sus scrofa, UniProt P00591)", "t"),
]

Check if inhibition at 0.7 µM >= 70% (inclusive). Item: "CCCCCCCCCCCCc1cc2c(=O)oc(OCCCCCCCC)nc2s1"
t

Check if inhibition at 0.7 µM >= 70% (inclusive). Item: CCCCCCCc1cc2c(=O)oc(OC(C)CCCCCC)nc2s1 (centres unmarked)
f

Check if inhibition at 0.7 µM >= 70% (inclusive). Item: CCCCCCCCCCc1cc2c(=O)oc(OC(C)CCCCCC)nc2s1 (centres unmarked)
f
